- assay.name: Microsomal clearance assay (M)
- cond: intrinsic clearance in rat liver microsomes
The threshold is 100 µL/min/mg. Values of Assay M RLM CI(int) beneath it are tagged fulfilled; values meeting or exceeding it are tagged not fulfilled.

Reference set (5 entries):
[
  {
    "molecule": "CCn1ncc(-c2nc(-c3cc(S(=O)(=O)NCC(C)(C)O)ccc3C)cnc2N)n1 [Example 82]",
    "label": "fulfilled"
  },
  {
    "molecule": "Cc1cc(C)n(-c2nc(-c3cc(S(=O)(=O)NCC(C)(C)O)ccc3C)cnc2N)n1 [Example 48]",
    "label": "fulfilled"
  },
  {
    "molecule": "Cc1ccc(S(=O)(=O)NCC(N)=O)cc1-c1cnc(N)c(-n2cncn2)n1 [Example 133]",
    "label": "fulfilled"
  },
  {
    "molecule": "Cc1ccc(S(=O)(=O)NOCC(C)(C)O)cc1-c1cnc(N)c(-c2cn(C)nc2C)n1 [Example 125]",
    "label": "fulfilled"
  },
  {
    "molecule": "Cc1ccc(S(=O)(=O)NCCC(C)(C)O)cc1-c1cnc(N)c(-c2cnc(C3CC3)s2)n1 [Example 107]",
    "label": "not fulfilled"
  }
]

Dear reviewer, please state whether Cc1ncc(-c2nc(-c3cc(S(=O)(=O)NCC4CCOCC4)ccc3C)cnc2N)s1 [Example 45.2] has Assay M RLM CI(int) strictly beneath 100 µL/min/mg.
not fulfilled

Dear reviewer, please state whether Cc1ccc(S(=O)(=O)N2CCCC(F)(F)C2)cc1-c1cnc(N)c(-n2cncn2)n1 [Example 127.1] has Assay M RLM CI(int) strictly beneath 100 µL/min/mg.
not fulfilled

Dear reviewer, please state whether Cc1ccc(S(=O)(=O)NC2CC3(CC(O)C3)C2)cc1-c1cnc(N)c(-n2cncn2)n1 (single isomer, unassigned) [Example 70a] has Assay M RLM CI(int) strictly beneath 100 µL/min/mg.
fulfilled

* * *

- assay.target: mTOR (Homo sapiens, UniProt P42345)
- assay.name: Lanthascreen kinase binding assay, assay G
- cond: read-out: Assay G mTOR IC50
Please respond with reported pIC50 for every item in the list.
Numbers only, as −log10 of the molar value.

[
  {
    "smiles.str": "Cc1ccc(S(=O)(=O)NCCC2(O)CCCC2)cc1-c1cnc(N)c(-n2cncn2)n1",
    "assay.target": "mTOR (Homo sapiens, UniProt P42345)",
    "pIC50": 5.12
  }
]

Hi there! I need pIC50 for each item below, if you can.
1. Cc1ccc(S(=O)(=O)N[C@H]2CC[C@H](O)CC2)cc1-c1cnc(N)c(-c2cncnc2)n1
2. Cc1ccc(S(=O)(=O)NC2CC2)cc1-c1cnc(N)c(-n2cncn2)n1
3. Cc1ncc(-c2nc(-c3cc(S(=O)(=O)NCC(C)(C)O)ccc3C)cnc2N)s1

5.22
5.41
6.04

Which measured pIC50 value corresponds to Cc1ccc(S(=O)(=O)N[C@H]2CC[C@H](O)CC2)cc1-c1cnc(N)c(-c2nc(C3CC3)no2)n1 ?
5.10

* * *

Please respond with reported pIC50 for every item in the list.
- assay.target: PI 3-kinase gamma (Homo sapiens)
- Sequence (P48736 whole entry): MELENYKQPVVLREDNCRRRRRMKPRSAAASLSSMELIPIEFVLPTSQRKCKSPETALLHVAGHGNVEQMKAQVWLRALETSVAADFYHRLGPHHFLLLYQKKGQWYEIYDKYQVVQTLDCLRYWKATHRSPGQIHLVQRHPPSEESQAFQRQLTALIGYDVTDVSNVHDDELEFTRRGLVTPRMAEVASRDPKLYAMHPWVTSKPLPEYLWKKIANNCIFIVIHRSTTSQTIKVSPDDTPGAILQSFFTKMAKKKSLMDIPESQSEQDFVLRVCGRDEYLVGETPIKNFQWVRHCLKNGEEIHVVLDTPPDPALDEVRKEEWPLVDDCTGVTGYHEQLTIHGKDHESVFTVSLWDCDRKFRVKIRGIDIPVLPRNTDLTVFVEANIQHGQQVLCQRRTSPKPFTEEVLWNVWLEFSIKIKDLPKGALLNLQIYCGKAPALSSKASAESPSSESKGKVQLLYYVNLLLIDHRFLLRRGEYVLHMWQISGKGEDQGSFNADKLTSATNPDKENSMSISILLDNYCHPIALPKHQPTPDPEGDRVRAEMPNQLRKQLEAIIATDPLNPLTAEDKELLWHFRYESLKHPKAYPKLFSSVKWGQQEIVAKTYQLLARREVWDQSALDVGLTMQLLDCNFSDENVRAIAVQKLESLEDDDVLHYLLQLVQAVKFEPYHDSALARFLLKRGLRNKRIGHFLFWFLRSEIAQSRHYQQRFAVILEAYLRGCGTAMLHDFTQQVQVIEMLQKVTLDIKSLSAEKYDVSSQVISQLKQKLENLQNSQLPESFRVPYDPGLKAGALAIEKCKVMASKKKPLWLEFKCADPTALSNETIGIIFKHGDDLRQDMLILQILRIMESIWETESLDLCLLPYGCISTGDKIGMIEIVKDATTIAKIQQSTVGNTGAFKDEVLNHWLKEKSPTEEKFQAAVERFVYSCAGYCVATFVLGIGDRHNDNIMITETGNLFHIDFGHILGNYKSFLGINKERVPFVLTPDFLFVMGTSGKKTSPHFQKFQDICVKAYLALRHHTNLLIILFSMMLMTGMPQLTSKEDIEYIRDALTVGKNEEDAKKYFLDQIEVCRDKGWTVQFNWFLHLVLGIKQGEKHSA
- assay.name: TR-FRET Adapta assay, assay E
- Assay type: biochemical
- cond: read-out: Assay E PI3Kγ IC50
Answers are plain numbers, as −log10 of the molar value.

Consider the reported pIC50 for these compounds:
[
  {
    "smiles.str": "Cc1ccc(S(=O)(=O)NOCC(C)C)cc1-c1cnc(N)c(-n2cncn2)n1",
    "pIC50": 7.03
  },
  {
    "smiles.str": "Cc1ccc(S(=O)(=O)NCC(C)(C)O)cc1-c1cnc(N)c(-c2cc(C3CC3)no2)n1",
    "pIC50": 7.66
  },
  {
    "smiles.str": "Cc1noc(-c2nc(-c3cc(S(=O)(=O)NCC(C)(C)CO)ccc3C)cnc2N)n1",
    "pIC50": 7.14
  }
]

Consider the additional compound presented here.
Enter reported pIC50 observed with PI 3-kinase gamma (Homo sapiens) for Cc1ccc(S(=O)(=O)NCCC(C)(C)O)cc1-c1cnc(N)c(-c2cnc(Cl)cc2C)n1
6.75

Origin of values: patent US10004732B2
